Tested on: mouse RANKL mRNA
Test: Antisense inhibition of mouse RANKL mRNA in C2C12 cells: dose response (Table 5)
Type: cell-based
Details: 100 nM oligonucleotide, relative to untreated control
Strand notation (5' to 3'): a small letter for the sugar, then the base; units joined by * are phosphorothioate-linked, units joined directly phosphodiester-linked; [ ] holds rarer units or linkages, { } end groups; capitals alone tell only the bases. e = 2'-O-(2-methoxyethyl) (MOE); [5mC] = 5-methylcytosine; d = 2'-deoxy (DNA)
measured.parameter: % Inhibition of RANKL mRNA (%)

substance: 180814 (antisense eG*eT*e[5mC]*eT*eT*dA*d[5mC]*dA*d[5mC]*dA*dT*dG*dT*dA*dT*eA*eG*eA*e[5mC]*eA) [compound 180814]
measured.parameter: % Inhibition of RANKL mRNA
assay.result: 70
//
substance: 101757 (antisense eA*eG*eG*eT*eG*d[5mC]*dT*d[5mC]*dA*dG*dG*dA*d[5mC]*dT*d[5mC]*e[5mC]*eA*eT*eT*eT) [compound 101757]
measured.parameter: % Inhibition of RANKL mRNA
assay.result: 13
//
substance: 180812 (antisense eT*e[5mC]*e[5mC]*eG*eG*dA*dT*d[5mC]*d[5mC]*dA*dG*d[5mC]*dA*dG*dG*eG*eA*eA*eG*eG) [compound 180812]
measured.parameter: % Inhibition of RANKL mRNA
assay.result: 20
//
substance: 180819 (antisense eT*eG*e[5mC]*eA*eG*dG*dT*d[5mC]*d[5mC]*d[5mC]*dA*dG*d[5mC]*dG*d[5mC]*eA*eA*eT*eG*eT) [compound 180819]
measured.parameter: % Inhibition of RANKL mRNA
assay.result: 71
//
substance: 180828 (antisense eT*eT*eT*eA*eT*dT*dT*dT*dG*d[5mC]*dT*dT*dG*d[5mC]*dA*eT*eA*eG*eT*eT) [compound 180828]
measured.parameter: % Inhibition of RANKL mRNA
assay.result: 31

// data source = patent US20050060764A1
